Entries with their measured HepSE_hepatic necrosis, system Hepatotoxicity:
*1 amine or outer side, *2 acyl side, *3 side chain or, on linkers, in order; H or OH if unused. Where a SMILES comes first, the peptide text is derived from it. Bridges are numbered along the chain shown (N, C = ends). [ ]: non-standard residue; d: D form. The star is where a group is joined. pTerphenylCO(4''-OnC5H11) = CCCCCOc1ccc(-c2ccc(-c3ccc(C(=O)*)cc3)cc2)cc1; Orn(4R-OH,5R-OH) = O=C([C@H](C[C@@H](O)[C@@H](O)N[*:3])N[*:1])[*:2]; hTyr(3S-OH,4S-OH) = N[C@H](C(=O)O)[C@H](O)[C@@H](O)c1ccc(O)cc1; Pro(3S-OH,4S-Me) = C[C@H]1CN[C@H](C(=O)O)[C@H]1O; Hyp = O=C(O)[C@@H]1C[C@@H](O)CN1
Provide a numeric answer; units are not to be included.

Lookup: Identify measured HepSE_hepatic necrosis corresponding to "Cc1cc(C2CCCCC2)n(O)c(=O)c1"
Found: 0

Lookup: Identify measured HepSE_hepatic necrosis corresponding to CCCCCOc1ccc(-c2ccc(-c3ccc(C(=O)N[C@H]4C[C@@H](O)[C@@H](O)NC(=O)[C@@H]5[C@@H](O)[C@@H](C)CN5C(=O)[C@H]([C@@H](C)O)NC(=O)[C@H]([C@H](O)[C@@H](O)c5ccc(O)cc5)NC(=O)[C@@H]5C[C@@H](O)CN5C(=O)[C@H]([C@@H](C)O)NC4=O)cc3)cc2)cc1 [ANIDULAFUNGIN] ({pTerphenylCO(4''-OnC5H11)}-[Orn(4R-OH,5R-OH)]T[Hyp][hTyr(3S-OH,4S-OH)]T[Pro(3S-OH,4S-Me)]; lactam 1-C)
Found: 1

Lookup: Identify measured HepSE_hepatic necrosis corresponding to "C[N+](C)(C)CCOC(N)=O.[Cl-]"
Found: 0

Where do the numbers come from? From ChEMBL document CHEMBL1909294.
